Assay: Drug uptake in Sprague-Dawley rat plasma at 1 mg/kg, po qd administered via gavage measured 1 hr post last dose on day 14 by LC-MS/MS analysis
Type: ADME, organism-based
READOUT_NAME: concentration at 1 h (nM)
The answer is to be given in nM; state only the numeric part.

IN: So what does the record say about concentration at 1 h for O=C(O)c1cc(F)c2nc(N3C4CCC3CC(OCc3c(-c5ccccc5OC(F)(F)F)noc3C3CC3)C4)sc2c1 (stereo unspecified) ?
OUT: 16.4

----------
Test: Drug uptake in Sprague-Dawley rat liver at 0.003 mg/kg, po qd administered via gavage measured 1 hr post last dose on day 14 by LC-MS/MS analysis
Format: ADME, organism-based
Settings: read-out: Drug uptake
READOUT_NAME: concentration at 1 h
Be sure to follow the number with its unit.

IN: What does the data say about its concentration at 1 h? Entry: O=C(O)c1cc(F)c2nc(N3C4CCC3CC(OCc3c(-c5ccccc5OC(F)(F)F)noc3C3CC3)C4)sc2c1 (stereo unspecified)
OUT: 2.92 nM

----------
Test: Drug uptake in Sprague-Dawley rat plasma at 0.1 mg/kg, po qd administered via gavage measured 7 hrs post last dose on day 14 by LC-MS/MS analysis
Type: ADME, organism-based
READOUT_NAME: concentration at 7 h
Write the figure, then the unit, nothing else.

IN: Consider the compound shown here: O=C(O)c1cc(F)c2nc(N3C4CCC3CC(OCc3c(-c5ccccc5OC(F)(F)F)noc3C3CC3)C4)sc2c1 (stereo unspecified) What is its recorded concentration at 7 h?
OUT: 4.89 nM

----------
Assay: Drug uptake in Sprague-Dawley rat plasma at 0.3 mg/kg, po qd administered via gavage measured 7 hrs post last dose on day 14 by LC-MS/MS analysis
Type: ADME, organism-based
READOUT_NAME: concentration at 7 h (nM)
Unit nM implied. Number only.

IN: Sample O=C(O)c1cc(F)c2nc(N3C4CCC3CC(OCc3c(-c5ccccc5OC(F)(F)F)noc3C3CC3)C4)sc2c1 (stereo unspecified) — what was its concentration at 7 h?
OUT: 13.8

----------
Assay: AUC (0 to 24 hrs) in Sprague-Dawley rat at 0.3 mg/kg, po qd administered via gavage measured on day 1 by LC-MS/MS analysis
Format: ADME, organism-based
Parameters: dose 0.3 mg/kg, time < 24 hr, route oral
Conditions: in vivo
READOUT_NAME: AUC(0-t) at 24 h
Please make sure the unit comes right after the number.

IN: GET /values?readout=AUC(0-t) at 24 h&item= O=C(O)c1cc(F)c2nc(N3C4CCC3CC(OCc3c(-c5ccccc5OC(F)(F)F)noc3C3CC3)C4)sc2c1 (stereo unspecified)
OUT: 0.117 µM·h

----------
Give measured log10(AUC) for each item. Keep answers brief.
Test: AUC in rat at 10 mg/kg, po administered via gavage by LC-MS/MS analysis
Type: ADME, organism-based
Conditions: in vivo
Friendly reminder: values = log10 of AUC, unit µM·h.

IN: Data request, read-out log10(AUC), for Cc1cc(C(=O)O)cc2sc(N3C4CCC3CC(OCc3c(-c5ccccc5OC(F)(F)F)noc3C3CC3)C4)nc12 (stereo not drawn)
OUT: -0.08

IN: Could you share which log10(AUC) value was measured for `O=C(O)c1ccc2nc(N3CCC(OCc4c(-c5ccccc5OC(F)(F)F)noc4C4CC4)CC3)sc2c1` ?
OUT: 0.66

IN: Name the recorded log10(AUC) for O=C(O)c1cc(F)c2nc(N3C4CCC3CC(OCc3c(-c5ccccc5OC(F)F)noc3C3CC3)C4)sc2c1 (stereo not drawn) .
OUT: 0.54

IN: Please give the measured log10(AUC) for this compound: O=C(O)c1cc(F)c2nc(N3C4CCC3CC(OCc3c(-c5ccccc5C(F)(F)F)noc3C3CC3)C4)sc2c1 (stereo not drawn)
OUT: 0.56

IN: # lookup: log10(AUC) of COc1cc(C(=O)O)cc2sc(N3C4CCC3CC(OCc3c(-c5ccccc5OC(F)(F)F)noc3C3CC3)C4)nc12 (stereo not drawn)
OUT: 0.43

IN: Form field: reported log10(AUC) of O=C(O)c1ccc2nc(N3C4CCC3CC(OCc3c(-c5ccccc5OC(F)(F)F)noc3C3CC3)C4)sc2c1 (stereo not drawn)
OUT: 0.28

IN: Give its log10(AUC) value. Item: O=C(O)c1cc(F)c2nc(N3C4CCC3CC(OCc3c(-c5ccccc5OC(F)(F)F)noc3C3CC3)C4)sc2c1 (stereo not drawn)
OUT: 0.78

IN: Dear colleague, I am looking for the recorded log10(AUC) of the following compound: `O=C(O)c1ccc2nc(N3CCC(OCc4c(-c5c(Cl)cccc5Cl)noc4C4CC4)CC3)sc2c1`
OUT: -0.41
